- tgt: Tissue factor (Homo sapiens, UniProt P13726)
- Sequence (P13726 whole entry): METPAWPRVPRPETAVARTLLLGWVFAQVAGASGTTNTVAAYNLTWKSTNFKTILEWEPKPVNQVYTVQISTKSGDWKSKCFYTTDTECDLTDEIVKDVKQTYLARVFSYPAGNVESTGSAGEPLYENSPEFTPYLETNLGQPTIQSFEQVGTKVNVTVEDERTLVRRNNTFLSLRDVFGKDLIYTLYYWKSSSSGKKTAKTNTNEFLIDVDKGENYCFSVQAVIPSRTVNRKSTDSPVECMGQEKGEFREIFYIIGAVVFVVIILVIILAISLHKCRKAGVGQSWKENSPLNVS
- protocol-description: Inhibition of TNF-alpha-induced tissue factor activity in HUVEC preincubated for 4 hrs assessed after 4 hrs of TNFalpha challenge by one stage clotting assay
pIC50: −log10 of the molar value.
readout-type: pIC50

// solved cases for pIC50 follow
# molecule, pIC50
measured = [
    ("CCCC(=O)O", 2.70),
    ("CCC(=O)CCCCC[C@@H]1NC(=O)[C@H]2CCCCN2C(=O)[C@H]([C@@H](C)CC)NC(=O)[C@H](Cc2cn(OC)c3ccccc23)NC1=O", 6.70),
]

I: CC(=CC(C)C=CC(=O)NO)C(=O)c1ccc(N(C)C)cc1 (stereo not given)
II: Nc1ccccc1NC(=O)c1ccc(CNC(=O)OCc2cccnc2)cc1 [benzamide-type inhibitor, 3]
III: CCCC(CCC)C(=O)O [Valproinsaeure]
Hey, quick one: sort these by pIC50, largest value first please. Kindly provide the labels arranged according to the requested ordering.
I, II, III
(I: 7.52, II: 5.00, III: 2.70)

Attribution: BindingDB's records for doi:10.1074/jbc.M703586200
